- Tested on: Saccharomyces cerevisiae
- test details: protein stability index of tFT-peptide fusion (C-terminal peptide) (PSI (0-1 scale)); higher = more stable (slower turnover);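 further: PSI is a weighted mean of sequencing reads over stability bins, variants kept only with over 10 reads, mCherry proximal and sfGFP distal, peptide attached via GGGS linker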
- run conditions: genetic background: wild type; temperature: 30 C
quantity kind: protein stability index
Number only, no unit.

Worked examples, 2 sequences total:
KGDWGGRGCGRH    0.693
SLPASTEPNVGT    0.696

Recall and state the measured protein stability index for "SLFSLLVLPPPS" .
0.706

Could you please provide reported protein stability index for "RLHHQYSEATIS" ? Thanks!
0.703

###

- Test system: Saccharomyces cerevisiae
- test details: protein stability index of tFT-peptide fusion (C-terminal peptide) (PSI (0-1 scale)); higher = more stable (slower turnover)
- run conditions: genetic background: wild type; temperature: 30 C
Consider the reported protein stability index of an entry and match it to a band in L: < 0.6; M: ≥ 0.6 and < 0.7; H: ≥ 0.7

PWFSWLLYSFLF    L

Entry "ALRGWIRRRFPV" belongs to which category?
M

Each sequence maps to one class by protein stability index. Which class for "FSLSRWFDEIAL" ?
M

###

- System: Saccharomyces cerevisiae
- test details: protein stability index of tFT-peptide fusion (C-terminal peptide) (PSI (0-1 scale)); higher = more stable (slower turnover)
- run conditions: genetic background: doa10 deletion; temperature: 30 C
quantity kind: protein stability index
Hey, just send me the number, nothing else.

Examples with their reported protein stability index follow.
GPPPPPSLLLLC    0.201
FRCPHAVKLVLV    0.195
PYSLYASSSSPL    0.672

Please give measured protein stability index of the following entry: "GLWLRVCIVAWV"
0.0424

Identify measured protein stability index associated with "CFATTCLRCKWV"
0.425

Determine its reported protein stability index: "VWVISLCIGGVG"
0.205

Quote protein stability index reported for "WLFASCVFFWSS" please.
0.355

Could you please provide reported protein stability index for "SLALLFSFLLFL" ? Thanks!
0.605

Supply recorded protein stability index for "GNIHHTRFLALL" here.
0.485

Check the records and state protein stability index for "VLLCFFLGIVGF"
0.296

For the sequence "HLGNTMIKKLIG" , give its measured protein stability index value.
0.405

Indicate its recorded protein stability index; the sequence in question is "FLLASSRRICCS"
0.249

Tell me measured protein stability index for "LPLHTLLLCPPV" please.
0.345

###

- Tested on: Saccharomyces cerevisiae
- test details: protein stability index of tFT-peptide fusion (C-terminal peptide) (PSI (0-1 scale)); higher = more stable (slower turnover)
- run conditions: genetic background: wild type; temperature: 30 C
Respond with criterion met for protein stability index values of 0.7 and above, criterion not met for values below.

Some solved cases for reference:
VVCLGLPIQAGV    criterion not met
CPVSRHLLVLYW    criterion not met
KTPHSTARNFNR    criterion met
GLFSTRLFCTFL    criterion not met
VSSVEHCLGHCR    criterion met

Reported protein stability index reaches at least 0.7 for "RAPCSLDFRGNA" ?
criterion met

Please check the record "TVRAPLDSARCP" and state if its protein stability index is at or above 0.7.
criterion met

For this sequence, is measured protein stability index 0.7 or higher? "KVIRVEALEILV"
criterion not met

Please indicate if the recorded protein stability index for "KRGVVGFGKGGG" meets or exceeds 0.7.
criterion not met

Reported protein stability index reaches at least 0.7 for "SWIKRYEITCIL" ?
criterion not met

Check if protein stability index >= 0.7 (inclusive). Item: "KKQKKKTKANKT"
criterion not met

Determine whether measured protein stability index meets or exceeds 0.7 for "LPSSLFLCSLFC"
criterion not met

protein stability index >= 0.7 for "LGVMLLEGWRVM" ?
criterion not met

Evaluate "PPSPYNPPSTAN" : protein stability index at minimum 0.7?
criterion met
